Cited source for all entries: the supplement of paper PMC10201428

B1: library; a variant is named by its letters at N, in order (parent)
chain: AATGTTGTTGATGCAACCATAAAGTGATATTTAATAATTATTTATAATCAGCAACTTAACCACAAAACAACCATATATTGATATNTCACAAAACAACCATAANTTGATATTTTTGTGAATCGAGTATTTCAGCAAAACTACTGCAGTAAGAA

Variants of: B1
assay-summary: relative integration efficiency (T-RL orientation) vs wild-type transposon end (log2 (normalized fold change)); transposon end mutated: left end; higher = more efficient transposition
condition-label: with VchCAST RNA-guided transposition machinery (E. coli BL21(DE3) host, lacZ target)
Category scheme (relative integration efficiency (log2)): low end = under -0.5, middle = from -0.5 up to -0.2, high end = -0.2 and over

Check out these entries, answers already filled in.
Problem: Class (by measured relative integration efficiency (log2)) for CG T86G
Solution: high end

Problem: Class (by measured relative integration efficiency (log2)) for CG A53C
Solution: middle

Problem: Class (by measured relative integration efficiency (log2)) for CG G124T T125G
Solution: middle

Problem: Class (by measured relative integration efficiency (log2)) for CG G24C T25A G26C A27T
Solution: low end

Problem: Class (by measured relative integration efficiency (log2)) for CG A73T
Solution: low end

Problem: Class (by measured relative integration efficiency (log2)) for TA A16C G24T T32G A33C T76A T78A T84A C87A A96C T110A T113A
Solution: high end

Problem: Class (by measured relative integration efficiency (log2)) for CA G24A T30A A96C T110A T113A
Solution: middle

Problem: Class (by measured relative integration efficiency (log2)) for CG G10T A11C
Solution: low end

Others:
Problem: Class (by measured relative integration efficiency (log2)) for CG C52A A53C A54C C55A
Solution: high end

Problem: Class (by measured relative integration efficiency (log2)) for CG T41A T42A T43A A44T
Solution: high end

Problem: Class (by measured relative integration efficiency (log2)) for CG A29C
Solution: middle
